Where do these numbers come from? They come from PubChem BioAssay AID1259245.

target: Voltage-dependent calcium channel gamma-2 subunit (Mus musculus) + Glutamate receptor 2 (Rattus norvegicus) (UniProt O88602+P19491); assay: modulators of GluA2-stargazin AMPA receptor complexes, primary screen, cell-based, membrane potential dye (AID 1259245); details: HEK293 GluA2+stargazin, membrane potential dye (FDSS), glutamate EC50, at 30 µM, hits were called plate by plate, in both directions
Sequence (O88602 whole entry, looked up): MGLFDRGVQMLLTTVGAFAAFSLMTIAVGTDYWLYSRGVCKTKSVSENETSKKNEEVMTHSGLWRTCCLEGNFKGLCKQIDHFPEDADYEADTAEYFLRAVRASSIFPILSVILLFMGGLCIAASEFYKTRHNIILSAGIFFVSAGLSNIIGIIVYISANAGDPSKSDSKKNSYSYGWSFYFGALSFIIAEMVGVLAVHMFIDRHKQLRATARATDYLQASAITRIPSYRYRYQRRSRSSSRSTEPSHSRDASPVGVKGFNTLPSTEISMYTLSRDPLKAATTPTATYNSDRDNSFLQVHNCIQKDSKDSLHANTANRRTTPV
Sequence (P19491 whole entry, looked up): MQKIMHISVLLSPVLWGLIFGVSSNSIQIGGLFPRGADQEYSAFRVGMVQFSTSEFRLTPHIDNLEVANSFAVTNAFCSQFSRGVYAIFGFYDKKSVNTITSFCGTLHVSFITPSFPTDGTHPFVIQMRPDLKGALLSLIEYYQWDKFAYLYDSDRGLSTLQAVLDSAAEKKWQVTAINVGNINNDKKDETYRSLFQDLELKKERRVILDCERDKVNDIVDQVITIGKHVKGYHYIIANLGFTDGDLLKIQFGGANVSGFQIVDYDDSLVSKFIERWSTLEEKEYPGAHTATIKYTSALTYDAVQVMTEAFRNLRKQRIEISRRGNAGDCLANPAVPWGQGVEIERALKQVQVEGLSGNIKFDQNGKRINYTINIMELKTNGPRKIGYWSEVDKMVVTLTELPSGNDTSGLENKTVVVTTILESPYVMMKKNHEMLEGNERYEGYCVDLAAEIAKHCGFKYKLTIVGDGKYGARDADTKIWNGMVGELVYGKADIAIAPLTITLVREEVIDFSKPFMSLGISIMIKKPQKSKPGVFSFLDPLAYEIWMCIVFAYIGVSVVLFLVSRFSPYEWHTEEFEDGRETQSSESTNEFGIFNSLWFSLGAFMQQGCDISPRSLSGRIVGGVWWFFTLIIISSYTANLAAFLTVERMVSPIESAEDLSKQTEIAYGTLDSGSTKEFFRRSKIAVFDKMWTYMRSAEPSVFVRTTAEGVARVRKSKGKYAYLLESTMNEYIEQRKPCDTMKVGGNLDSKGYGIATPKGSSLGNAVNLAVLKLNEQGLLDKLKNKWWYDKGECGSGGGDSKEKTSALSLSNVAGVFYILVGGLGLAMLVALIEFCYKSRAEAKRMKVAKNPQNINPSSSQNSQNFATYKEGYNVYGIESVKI
Out of some 40,000 compounds screened, about 1,400 (3.5%) were called active. For the sample, actives were picked, then their nearest neighbours and some compounds at random.
experimental.endpoint: glutamate response, % of max (%)
Answers are plain numbers, in %.

COc1ccc(CCNC(=O)Nc2c[nH]c3ccccc23)cc1	40.6
CC(C)c1cc(NCCN2CCOCC2)n2ncc(-c3ccccc3)c2n1	34
CN1CCN(c2ccc(-c3cccc(NC(=O)COc4ccc(F)cc4F)c3)nn2)CC1	38.5

Go through the list and state glutamate response, % of max for each entry.
1. COc1ccc2sc(N(CC3CCCO3)C(=O)C3CCCC3)nc2c1 (stereo unspecified)
2. COc1cccc(-c2noc(C3CCN(S(=O)(=O)c4ccc(C)cc4)CC3)n2)c1OC
3. Cc1cc(NC(=O)c2ccc3c(c2)OCO3)n(-c2nc3c(cnn3-c3cccc(Cl)c3)c(=O)[nH]2)n1
4. COCC(C)(O)CNC(=O)Cc1cccc(C)c1 (stereo unspecified)
5. O=C(NCCn1ncc2c(N3CCN(c4ccccc4)CC3)ncnc21)c1cccs1

result:
[20, 28.5, 27.3, 4.21, 45.6]

Go through the list and state glutamate response, % of max for each entry.
1. CCOc1ccc(S(=O)(=O)NCc2ccc3c(c2)OCO3)cc1OCC
2. CCN(CC)C(=O)C(=O)c1cn(CC(=O)N2CCOCC2)c2ccccc12
3. Cc1cc(C)n(CCNC(=O)c2nc(-c3cnccn3)no2)n1
4. O=C(NCC1CCN(Cc2ccsc2)CC1)C(=O)Nc1ccon1
5. Cn1cccc1C(O)CNC(=O)C1(c2ccccc2)CCOCC1 (stereo unspecified)

result:
30.4
31.2
48.6
38.4
49.3

Go through the list and state glutamate response, % of max for each entry.
1. O=C(Nn1cnc2c(cnn2-c2cccc(Cl)c2)c1=O)c1ccc(-c2ccccc2)cc1
2. Cn1nc(NC(=O)/C=C\c2ccc3c(c2)OCO3)c2c1NC(=O)CC2c1ccco1 (stereo unspecified)
3. CS(=O)(=O)N1CCCCC1C(=O)Nc1nc(-c2ccccn2)cs1 (stereo unspecified)

result:
1. 36
2. 38.8
3. 43
